These entries and their values trace back to ChEMBL document CHEMBL1201862.

System: BT-549
test.protocol: NCI tumour cell line growth inhibition, 48 h
Calls of active or inactive are those of the source. Rule as the data show it: active = GI50 up to about 1.1 µM and inactive = higher.

[
  {
    "compound": "O=C(O)C1CC2(C1)CC(C(=O)O)C2 (centres undefined)",
    "GI50": "> 100 µM (inactive)"
  },
  {
    "compound": "CC1(C)O[C@@H]([C@@H](O)[C@H](O)C2SCCCS2)[C@@H](CO)O1",
    "GI50": "> 100 µM (inactive)"
  },
  {
    "compound": "O=c1cc(-c2cc(O)c(O)c(-c3c(O)cc4oc(-c5ccc(O)c(O)c5)cc(=O)c4c3O)c2)oc2cc(O)cc(O)c12",
    "GI50": "> 25 µM (inactive)"
  },
  {
    "compound": "C[C@@H]1CC[C@@H](C)[C@](C)(CCc2ccoc2)C/C=C\\C=C/1C(=O)O",
    "GI50": "> 50 µM (inactive)"
  },
  {
    "compound": "CC1CCC2N(C1)CC1C3(O)CC45OC6(O)C(O)CCC4(C)C6CCC5C3(O)CC(O)C1(O)C2(C)O (centres undefined)",
    "GI50": "> 100 µM (inactive)"
  },
  {
    "compound": "Cc1ccc2c(c1)-c1c(C#N)c(N)nc(-c3ccccc3)c1CCS2(=O)=O",
    "GI50": "12.1 µM (inactive)"
  },
  {
    "compound": "CCOC(=O)Cn1c(=O)c2cc(C)cc3c(Cl)nc4c(OC)c(OC)cc1c4c32",
    "GI50": "56.6 µM (inactive)"
  },
  {
    "compound": "CCOC(=O)/C(C#N)=C/c1ccc2c(c1)CC1(C2)Cc2cc(CC)c(C(C)O)cc2C1 (centres undefined)",
    "GI50": "10.8 µM (inactive)"
  },
  {
    "compound": "CC1CC/C(=C\\c2ccc(Cl)cc2)C2OC(N)=C(C#N)C(c3ccc(Cl)cc3)=C12 (centres undefined)",
    "GI50": "15.2 µM (inactive)"
  },
  {
    "compound": "CCc1n[nH]c(=O)n1/N=C/c1ccc(/C=N/n2c(CC)n[nH]c2=O)cc1",
    "GI50": "> 100 µM (inactive)"
  },
  {
    "compound": "O=NN(CCCl)C(=O)NC1CCCCC1 [LOMUSTINE]",
    "GI50": "8.24 µM (inactive)"
  },
  {
    "compound": "O=C1N/C(=N/N=C/C(O)C(O)C(O)CO)N/C1=C\\c1c[nH]c2ccccc12 (centres undefined)",
    "GI50": "> 100 µM (inactive)"
  },
  {
    "compound": "CCOC(=O)/C(C#N)=C/c1ccc(SCc2ccco2)c([N+](=O)[O-])c1",
    "GI50": "> 100 µM (inactive)"
  },
  {
    "compound": "Cc1ccc(/N=C2N=C(Cl)/C(=C\\c3ccccc3)N\\2)cc1",
    "GI50": "> 100 µM (inactive)"
  }
]

###

Readings of GI50 for the listed compounds
System: RXF 393
test.protocol: NCI tumour cell line growth inhibition, 48 h
Calls of active or inactive are those of the source. No stated cut-off is given here; in the data, active = GI50 up to about 1.1 µM and inactive = higher.

[
  {
    "compound": "Cc1cc(O)c(C=O)c2c1C(=O)Oc1c(CO)c(O)c3c(c1O2)C(O)OC3=O (stereo unspecified)",
    "GI50": "87.5 µM (inactive)"
  },
  {
    "compound": "C=CCC(O[Si](C)(C)C(C)(C)C)c1cc(O[Si](C)(C)C(C)(C)C)ccc1OC (stereo unspecified)",
    "GI50": "58.9 µM (inactive)"
  },
  {
    "compound": "Cc1ccc(/N=N/NCCCCN)cc1",
    "GI50": "> 100 µM (inactive)"
  },
  {
    "compound": "COc1ccc(NCc2cc(OC)c(OC)c(OC)c2)cc1",
    "GI50": "0.342 µM (active)"
  },
  {
    "compound": "Cc1cc(O)c(C(C)C)cc1/N=C/c1ccccc1O",
    "GI50": "1.34 µM (inactive)"
  },
  {
    "compound": "O=C(O)C(O)(c1ccc(-c2ccccc2)cc1)c1ccc(-c2ccccc2)cc1",
    "GI50": "22 µM (inactive)"
  },
  {
    "compound": "CCOC(=O)c1sc2c(sc(=O)n2-c2ccccc2)c1O",
    "GI50": "> 100 µM (inactive)"
  },
  {
    "compound": "CCc1n[nH]c(=O)n1/N=C/c1ccc(/C=N/n2c(CC)n[nH]c2=O)cc1",
    "GI50": "> 100 µM (inactive)"
  },
  {
    "compound": "CC1OC(O[C@H]2CC[C@]3(C=O)[C@H]4CC[C@]5(C)[C@H](C6=CC(=O)OC6)CC[C@]5(O)[C@@H]4C=C[C@]3(O)C2)CC(O)C1O (stereo partly specified)",
    "GI50": "0.0661 µM (active)"
  },
  {
    "compound": "O=c1oc2ccccc2c(O)c1C(C/C(CCN1CCCC1)=N\\Nc1ccccc1)c1ccccc1 (stereo unspecified)",
    "GI50": "32.7 µM (inactive)"
  },
  {
    "compound": "CN1C(=O)N(C)C2(O)c3ccccc3C(=O)C12O (stereo unspecified)",
    "GI50": "> 100 µM (inactive)"
  },
  {
    "compound": "CCOC(=O)N1CC2(C(=O)OC)C=CC1C(C(=O)OC)C2 (stereo unspecified)",
    "GI50": "> 100 µM (inactive)"
  },
  {
    "compound": "COc1ccc(C2=C[C@]3(O)CCCN3C[C@@H]2c2ccc(OC)c(OC)c2)cc1",
    "GI50": "> 0.01 µM (active)"
  },
  {
    "compound": "CSc1ccn(C2CC(F)C(CO)O2)c(=O)n1 (stereo unspecified)",
    "GI50": "> 100 µM (inactive)"
  },
  {
    "compound": "COc1ccc2[nH]c3cc4c(=O)c5cc(OC)ccc5[nH]c4cc3c(=O)c2c1",
    "GI50": "> 100 µM (inactive)"
  },
  {
    "compound": "Cc1c(CCCl)c(Cl)n2c(nc3ccccc32)c1C#N",
    "GI50": "0.787 µM (active)"
  }
]
